Let's look at some molecules and their measured Activity.
# TESTED_ON: ATP-dependent translocase ABCB1 (Homo sapiens, UniProt P08183)
# Sequence (P08183 whole entry): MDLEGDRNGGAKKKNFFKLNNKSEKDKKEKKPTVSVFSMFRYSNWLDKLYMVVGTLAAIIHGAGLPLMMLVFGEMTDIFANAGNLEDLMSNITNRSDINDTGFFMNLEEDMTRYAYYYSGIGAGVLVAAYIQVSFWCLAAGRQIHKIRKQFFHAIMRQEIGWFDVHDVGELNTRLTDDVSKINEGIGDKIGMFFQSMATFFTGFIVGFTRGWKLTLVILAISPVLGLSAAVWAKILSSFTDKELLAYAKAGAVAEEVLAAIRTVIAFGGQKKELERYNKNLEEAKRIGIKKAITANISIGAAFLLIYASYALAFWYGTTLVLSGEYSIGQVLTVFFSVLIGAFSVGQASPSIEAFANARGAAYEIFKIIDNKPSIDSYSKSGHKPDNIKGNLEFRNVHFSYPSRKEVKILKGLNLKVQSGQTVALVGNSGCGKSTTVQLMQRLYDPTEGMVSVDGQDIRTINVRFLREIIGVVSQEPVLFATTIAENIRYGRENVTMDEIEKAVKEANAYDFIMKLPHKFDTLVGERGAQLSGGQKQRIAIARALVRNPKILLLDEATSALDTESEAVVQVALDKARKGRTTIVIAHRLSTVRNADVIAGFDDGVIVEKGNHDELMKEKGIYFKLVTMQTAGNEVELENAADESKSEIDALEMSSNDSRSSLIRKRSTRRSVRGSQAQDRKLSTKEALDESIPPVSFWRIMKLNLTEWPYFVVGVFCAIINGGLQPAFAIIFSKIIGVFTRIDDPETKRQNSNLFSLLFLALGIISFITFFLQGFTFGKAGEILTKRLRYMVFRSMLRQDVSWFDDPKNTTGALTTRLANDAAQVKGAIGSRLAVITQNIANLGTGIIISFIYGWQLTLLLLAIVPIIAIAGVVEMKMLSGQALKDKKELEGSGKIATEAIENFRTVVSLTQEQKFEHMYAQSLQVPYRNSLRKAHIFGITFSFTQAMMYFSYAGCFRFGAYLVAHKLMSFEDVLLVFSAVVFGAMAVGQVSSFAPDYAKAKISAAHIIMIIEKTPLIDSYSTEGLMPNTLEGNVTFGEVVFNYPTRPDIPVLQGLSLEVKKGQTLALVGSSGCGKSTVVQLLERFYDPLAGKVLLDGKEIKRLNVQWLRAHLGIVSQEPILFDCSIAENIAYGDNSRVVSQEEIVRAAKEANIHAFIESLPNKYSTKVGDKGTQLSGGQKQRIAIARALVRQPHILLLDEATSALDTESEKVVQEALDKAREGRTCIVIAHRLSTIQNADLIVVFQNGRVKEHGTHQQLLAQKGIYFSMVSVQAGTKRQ
# METHOD_DESCRIPTION: Inhibition of Pgp in multidrug-resistant human 2780AD cells assessed as vincristine accumulation at 1.0 ug/mL relative to verapamil
# Assay type: cell-based
# Set-up: scale not given: the % may be the effect or the level left
# EXPERIMENTAL_SETUP: a2780 adr
MEASUREMENT_KIND: Activity (%)

1) C=C1[C@@H](OC(C)=O)CC[C@@]2(C)C[C@H](OC(=O)/C=C/c3ccccc3)C3=C(C)C[C@H](O)[C@@H]([C@@H](OC(C)=O)[C@H]12)C3(C)C	102
2) C=C1[C@@H](OC(C)=O)CC[C@@]2(C)C[C@H](OC(C)=O)C3=C(C)C[C@H](O)[C@@H]([C@@H](OC(C)=O)[C@H]12)C3(C)C	79
3) C=C1[C@@H](OC(C)=O)CC[C@@]2(C)C[C@H](OC(=O)/C=C/c3ccccc3)C3=C(C)C[C@H](OC(=O)/C=C/c4ccccc4)[C@@H]([C@@H](OC(C)=O)[C@H]12)C3(C)C	49
4) C=C1[C@@H](OC(C)=O)CC[C@@]2(C)[C@@H](O)[C@H](OC(C)=O)C3=C(C)C[C@H](OC(C)=O)[C@@H]([C@@H](OC(C)=O)[C@H]12)C3(C)C	58
5) C=C1[C@@H](OC(C)=O)CC[C@@]2(C)C[C@H](O)C3=C(C)C[C@H](OC(=O)/C=C/c4ccccc4)[C@@H]([C@@H](OC(C)=O)[C@H]12)C3(C)C	146
6) C=C1[C@@H](OC(C)=O)CC[C@@]2(C)C[C@H](OC(C)=O)C3=C(C)C[C@H](OC(=O)/C=C/c4ccccc4)[C@@H]([C@@H](OC(C)=O)[C@H]12)C3(C)C	75
7) C=C1[C@@H](OC(C)=O)CC[C@@]2(C)C[C@H](OC(=O)/C=C/c3ccccc3)C3=C(C)C[C@H](OC(C)=O)[C@@H]([C@@H](OC(C)=O)[C@H]12)C3(C)C	118
8) C=C1[C@@H](OC(C)=O)CC[C@@]2(C)C[C@H](OC(C)=O)C3=C(C)C[C@H](OC(C)=O)[C@@H]([C@@H](O)[C@H]12)C3(C)C	84
9) C=C1[C@@H](OC(C)=O)CC[C@@]2(C)C[C@H](O)C3=C(C)C[C@H](OC(C)=O)[C@@H]([C@@H](OC(C)=O)[C@H]12)C3(C)C	64

====

# TESTED_ON: UniProtKB P08183
# METHOD_DESCRIPTION: Inhibition of Pgp in multidrug-resistant human 2780AD cells assessed as calcein accumulation at 0.25 ug/mL relative to control
# Assay type: cell-based
# Set-up: scale not given: the % may be the effect or the level left
# EXPERIMENTAL_SETUP: a2780 adr
Let's look at some compounds and their measured Activity.
MEASUREMENT_KIND: Activity (%)

1. C=C1[C@@H](OC(C)=O)CC[C@@]2(C)C[C@H](OC(C)=O)C3=C(C)C[C@H](OC(=O)C(C)C(C)O)[C@@H]([C@@H](OC(C)=O)[C@H]12)C3(C)C (stereo partly specified) [YUNNANXANE]	81
2. C=C1[C@@H](OC(C)=O)CC[C@@]2(C)[C@@H](O)[C@H](OC(C)=O)C3=C(C)C[C@H](OC(C)=O)[C@@H]([C@@H](OC(C)=O)[C@H]12)C3(C)C	102
3. C=C1[C@@H](OC(C)=O)CC[C@@]2(C)C[C@H](OC(C)=O)C3=C(C)C[C@H](OC(=O)C(C)CC)[C@@H]([C@@H](OC(C)=O)[C@H]12)C3(C)C (stereo partly specified)	100
4. C=C1[C@@H](OC(C)=O)CC[C@@]2(C)C[C@H](OC(C)=O)C3=C(C)C[C@H](OC(=O)CCCC)[C@@H]([C@@H](OC(C)=O)[C@H]12)C3(C)C	94
5. C=C1[C@@H](OC(C)=O)CC[C@@]2(C)[C@@H](OC(=O)/C=C/c3ccccc3)[C@H](OC(C)=O)C3=C(C)C[C@H](OC(C)=O)[C@@H]([C@@H](OC(C)=O)[C@H]12)C3(C)C	102
6. C=C1[C@@H](OC(C)=O)C[C@H](O)[C@@]2(C)C[C@H](OC(C)=O)C3=C(C)C[C@H](OC(=O)C(C)C(C)O)[C@@H]([C@@H](OC(C)=O)[C@H]12)C3(C)C (stereo partly specified)	87
7. C=C1[C@@H](OC(C)=O)CC[C@@]2(C)C[C@H](OC(C)=O)C3=C(C)C[C@H](OC(C)=O)[C@@H]([C@@H](OC(C)=O)[C@H]12)C3(C)C [TAXUYUNNANINE C]	130
8. C=C1[C@@H](OC(C)=O)CC[C@@]2(C)C[C@H](OC(C)=O)C3=C(C)C[C@H](OC(=O)/C=C/c4ccccc4)[C@@H]([C@@H](OC(C)=O)[C@H]12)C3(C)C	123
9. C=C1[C@@H](OC(C)=O)CC[C@@]2(C)C[C@H](OC(C)=O)C3=C(C)C[C@H](OC(C)=O)[C@@H]([C@@H](OC(=O)c4ccccc4)[C@H]12)C3(C)C	98
10. C=C1[C@@H](OC(C)=O)CC[C@@]2(C)C[C@H](OC(C)=O)C3=C(C)CC[C@@H]([C@@H](OC(C)=O)[C@H]12)C3(C)C	89
11. C=C1[C@@H](OC(C)=O)C[C@H](OC(=O)/C=C/c2ccccc2)[C@@]2(C)C[C@H](OC(C)=O)C3=C(C)C[C@H](OC(=O)C(C)CC)[C@@H]([C@@H](OC(C)=O)[C@H]12)C3(C)C (stereo partly specified)	96
12. C=C1[C@@H](OC(C)=O)CC[C@@]2(C)C[C@H](OC(C)=O)C3=C(C)C[C@H](O)[C@@H]([C@@H](OC(C)=O)[C@H]12)C3(C)C	104
13. C=C1[C@@H](OC(C)=O)CC[C@@]2(C)C[C@H](OC(=O)/C=C/c3ccccc3)C3=C(C)C[C@H](OC(=O)/C=C/c4ccccc4)[C@@H]([C@@H](OC(C)=O)[C@H]12)C3(C)C	83
14. C=C1[C@@H](OC(C)=O)CC[C@@]2(C)C[C@H](OC(C)=O)C3=C(C)C[C@H](OC(=O)C(C)C)[C@@H]([C@@H](OC(C)=O)[C@H]12)C3(C)C	133
15. C=C1[C@@H](OC(C)=O)CC[C@@]2(C)C[C@H](OC(=O)/C=C/c3ccccc3)C3=C(C)C[C@H](O)[C@@H]([C@@H](OC(C)=O)[C@H]12)C3(C)C	109
16. C=C1[C@@H](OC(C)=O)CC[C@@]2(C)C[C@H](O)C3=C(C)C[C@H](OC(C)=O)[C@@H]([C@@H](OC(C)=O)[C@H]12)C3(C)C	103
17. C=C1[C@@H](OC(C)=O)CC[C@@]2(C)C[C@H](O)C3=C(C)C[C@H](OC(=O)/C=C/c4ccccc4)[C@@H]([C@@H](OC(C)=O)[C@H]12)C3(C)C	107
18. C=C1[C@@H](OC(C)=O)CC[C@@]2(C)C[C@H](OC(C)=O)C3=C(C)C[C@H](OC(=O)CC)[C@@H]([C@@H](OC(C)=O)[C@H]12)C3(C)C	104
19. C=C1[C@@H](OC(C)=O)CC[C@@]2(C)C[C@H](OC(C)=O)C3=C(C)C[C@H](OC(=O)c4ccccc4)[C@@H]([C@@H](OC(C)=O)[C@H]12)C3(C)C	90
20. C=C1[C@@H](OC(C)=O)CC[C@@]2(C)C[C@H](OC(C)=O)C3=C(C)C[C@H](OC(C)=O)[C@@H]([C@@H](O)[C@H]12)C3(C)C	99
21. C=C1[C@@H](O)CC[C@@]2(C)C[C@H](OC(C)=O)C3=C(C)C[C@H](OC(C)=O)[C@@H]([C@@H](OC(C)=O)[C@H]12)C3(C)C	118
